Assign sensor-assay potency score (higher = more potent) to each entry below.
target: ODF4; test: pooled miR-30 sensor sort-seq; sequence = guide strand; details: shRNA; note: reference of the scale not given here
One number for each entry.

Batch: sensor-assay potency score (higher = more potent) for all items listed.
1. TTCCAGGTCTCTGATGTTGGTC
2. TTCTACTGAGCCGAAACTGCTG

Result:
[-1.05, -0.397]

Batch: sensor-assay potency score (higher = more potent) for all items listed.
1. TCTACTGAGCCGAAACTGCTGC
2. TCTCTTTCTCCTTCTGACCTGG
3. TCTTCTACTGAGCCGAAACTGC
4. TTGGTCTCTTTCTCCTTCTGAC
5. TTGAAGTAGCAAAGGATCGCGC

Result:
1: 0.472; 2: -0.166; 3: -1.39; 4: -0.95; 5: 0.0925

Each recorded value in this set is attributed to the OligoGym collection.
